- System: beta amyloid production
- ASSAY_EXPLANATION: Repressor Release Assay (RRA)
- Assay type: cell-based
- CONDITION_SET: Conc 3 μg/ml; luciferase activity over diluent control; read-out: APPI Fold Increase
QUANTITY: fold induction at 3 µg/mL
The reply should be a number, written without any unit.

Exercise: Field request: fold induction at 3 µg/mL | item: CC[C@H](C)[C@H](NS(=O)(=O)c1ccc(Br)cc1)C(O)C=C(C)C (stereo partly drawn)
Key: 1.52

Exercise: Can you share its fold induction at 3 µg/mL? I mean this compound: C=CCCC(O)(CCC=C)[C@@H](NS(=O)(=O)c1cccc(Cl)c1)[C@@H](C)CC
Key: 1.5

# context switch: different compound, same fold induction at 3 µg/mL
Exercise: Can you share its fold induction at 3 µg/mL? I mean this compound: C=CCC(O)[C@@H](NS(=O)(=O)c1ccc(F)cc1)[C@@H](C)CC (stereo partly drawn)
Key: 1.5
